assay method text: yeast display, Sf9 membrane polyspecificity reagent, FACS + sequencing; frameworks hold sequencing errors
assay readout: polyreactivity (PSR sort gate)

- sequence input: "QVQLVESGGGLVQAGGSLRLSCAASGRTIVVYGMGWYRQAPGKERELVATINYGGNTYYADSVKGRFTISRDNAKNTVYLQLNSLKPEDTAVYYCATRSYARYYTYDYWGQGTQVTVSS"
  polyreactivity (PSR sort gate): "low polyreactivity"
- sequence input: "QVQLVESGRGLVQAGGSLRLSCAASGSTFFDYAMGWYRQAPGKERELVATISWNGGSTYYADSVKGRFTISRDTATNTVYLQMNSLKPEDTAVYYCAKDRGYRYLGDYWGQGTQVSVSS"
  polyreactivity (PSR sort gate): "low polyreactivity"
- sequence input: "QVQLVESGGGIVQAGGSLRLSCAASGRTFRGNAMGWYRQAPGKERELVAAISWSGGRTYYADSVKGRFTISRDNAKNTVYLQMNSLKPEDTAVYYCNRLTRRWYSLRSFDYWGQGTQVTVSS"
  polyreactivity (PSR sort gate): "high polyreactivity"
- sequence input: "QVQLLDSGGGLVQAGGSLRLSCAASGSTIAYYDMGWYRQAPGKERELVAAISWSGGSTYYADSVKGRFTISRENAKKTVYLQMNSLKPEDTAVYYCNRLLGYFTDSSGSPMGYWGQGTQVTVSS"
  polyreactivity (PSR sort gate): "high polyreactivity"
- sequence input: "QVQLVESGGGLVQAGGSLRLIWAASGFTFWLNAMGWYRQAPGKERELVAAINWSGGSTYYADSVKGRFTISRDNAKNTVYLLMNILKPEDTAVYYCNRRGQYTFWPIHEYWGQGTQVTVSS"
  polyreactivity (PSR sort gate): "high polyreactivity"

Now look at this entry.
GET /value?item= QVQLVESGGGLVQAGGSLRLSCAASGSTFSPYAMGCYRQAPGKERELVAAINYSSGSTYYADSVKGRFTISRDNAMNTVYLQLNSLKPEDTAVYYCATGWYAGFTYDYWGQGTQVTVSS &field=polyreactivity (PSR sort gate) returns low polyreactivity

====

assay method text: yeast display, Sf9 membrane polyspecificity reagent, FACS + sequencing; frameworks hold sequencing errors
assay readout: polyreactivity (PSR sort gate)

- sequence input: "QVQLVESGGGLVQAGGSLRLSCAASGSILKVYAMGWYRQAPGKERELVAGITRSGVRTNYADSVKGRFTISRDNAKNTVYLQMNSLKPEDTAVCYCAAVGYVYRTYWYTRQSTYEYWGQGTQVTVSS"
  assay readout: "polyreactivity (PSR sort gate)"
  reported measurement: "high polyreactivity"
- sequence input: "QVQLVESGGGLVQAGGSLRLSCAASGRIFVGYAMGWYRQAPGKERELVAAITKSGGRTYYADSVKGRFTISRDNAKNTVYLQMNSLKPEDTAVYYCAVLNSKWNEYDYWGQGNQVTVSS"
  assay readout: "polyreactivity (PSR sort gate)"
  reported measurement: "high polyreactivity"
- sequence input: "QVQLVESGGGLVQAGGSLRLSCAASGFTFFVSAMGWYRQAPRKERELVAVITSGGTTNYADSVKGRFTISRDIAKKTVYLQMNSLKPEDTAVYYCNGRGEKRGYYYWGQGTQVSVSS"
  assay readout: "polyreactivity (PSR sort gate)"
  reported measurement: "high polyreactivity"
- sequence input: "QVQLVESGGGLVQAGGSLRLSCAASGSIFTWNAMGWYSQAPGKERELVAAISWIGDSTYYADSVKGRFTISRDNAKNTVYLQMNSLKPEDTAVYYCAAEYAQGSRELESWGQGTQVTVSS"
  assay readout: "polyreactivity (PSR sort gate)"
  reported measurement: "low polyreactivity"
- sequence input: "QVQLVESGGGLVQAGGSLRLSCAASGRIFRYYVMGWYRQAPGKERELVAAISRSGGSTRYADSVKGRFTISRDNAKNTVYLQMNSLKPEDTAVYYCAATSRSYNDYDYWGQGTQVTVSS"
  assay readout: "polyreactivity (PSR sort gate)"
  reported measurement: "high polyreactivity"
- sequence input: "QVQLVESGGGLVQAGGSLRLSCAASGSIFYLYAMGWYRQAPGKERELVATITASGGSTNYADSVKGRFTISRDNAKNTVYLQMNSLKPEDTAVYYCAAEYYYLVYEYDYWGQGTQVTVSS"
  assay readout: "polyreactivity (PSR sort gate)"
  reported measurement: "high polyreactivity"

polyreactivity (PSR sort gate) measured on QVQLVESGGGLVQAGGSLRLSCAASGRIFDRNAMGWYRQAPGKERELVARIDPGDDTNYADSVKGRFTISRDNAKHTVYLQMHSLKPEDTAVYYCATDPDYVLFRTAYYEYDYWGQGTQVTVSS = low polyreactivity

// field: polyreactivity (PSR sort gate); key: QVQLVESGGGLVQAGGRLRLSCAASGSTFVYNAMGWYRPAPGKERELVAAISRSGGRTYYADSVKGRFTISRDNAKNSVYLQMNSLKPEDTAVYYCAVLLRGIEYDYWGQGTQVTVSS ; value = high polyreactivity

====

assay method text: yeast display, Sf9 membrane polyspecificity reagent, FACS + sequencing; frameworks hold sequencing errors
assay readout: polyreactivity (PSR sort gate)

Look over these answered cases.
- sequence input: "QVQLVESGGGLVQAGGSLRLSCAASGLILYSYTMGRYRHAPGKERELVAVISRSGTSTYYADSVKGRFTISRDNAKNTVYLQMNSLKREDTSFYFCAALSRSGPYAYEYWGQGTQVSVSS"
  polyreactivity (PSR sort gate): "high polyreactivity"
- sequence input: "QVQLVESGGGLVQAGGSLRLSCAASGSTFNRNAMGWYRQAPGKERELVAAISWRGDSTSYADSVKGRFTISRDNAKNTVYLQMNSLKPEDTAVYYCATAHDYAFYRYWYVPSEYNYWGQGSQVTVSS"
  polyreactivity (PSR sort gate): "low polyreactivity"
- sequence input: "QVQLVESGGGLVQAGGSLRLSCAASGSTFYIYAMVWYRQAPGKERELVAAITGTGGSTYYADSVKGRFTISRDNAKNSVYLQMNSLKPEDTAVYYCAVGFGYYYKYGYWGQGTQVTVSS"
  polyreactivity (PSR sort gate): "low polyreactivity"
- sequence input: "QVQLVESGGGLVQAGGSLRLSCAASGSIFPINAMGWYRQAPGKERELVAVITSGGGGTYYADSVKGRFTISRDNAKNTVYLQMNSLKPEDSAVYYCAKRLSRKWQKFGYWGQGSQVTVSS"
  polyreactivity (PSR sort gate): "low polyreactivity"

Field: next sequence
Entry QVQLVESGGGLVQAGGSLRLSCAASGSTFSHYAMGWYRQAPGKERELVATITYSGGSTYYADSVKGRFTISRDNAKNTVYLQMNSMKPEDTAVYYCAARPRFITYKRYYWGQGTQVTVSS ; polyreactivity (PSR sort gate) = high polyreactivity

====

assay method text: yeast display, Sf9 membrane polyspecificity reagent, FACS + sequencing; frameworks hold sequencing errors
assay readout: polyreactivity (PSR sort gate)

- sequence input: "QVQHVESGGGLVQAGGSLRLSCAASGRTFRRNVMGWYRQAPGKERELVAAISSGANTNYADSVKGRFTISRDNAKNTVYLQMNSLKPEDTAVYYCNARWQEPLKYDYWGQGTQVTVSS"
  polyreactivity (PSR sort gate): "low polyreactivity"
- sequence input: "QVQLVESGGGLVQAGGSLRLSCAASGITFYRYALGWYRQAPGKEREFVAAISRSGVSTYYADSVKGRFTISRDNAKNTVYLQMNSLKPEDTAVYYCNKVYYPGFGYEGDYWGQGTQVTVSS"
  polyreactivity (PSR sort gate): "high polyreactivity"
- sequence input: "QVQLVESGGGLVQAGGSLRLSCAASGSTFSRYAMGLYRQATGKDRELVAAISWRGGRTYYADSVKGRFTISRDNAKNTVYLQMNSLKPEDTAVDYCAGLGDDATSYGYWGHGTQVTVSS"
  polyreactivity (PSR sort gate): "high polyreactivity"
- sequence input: "QVQLVESGGGLVQAGGSLRLSCAASGSIFGGYAMGWYRQAPGKERELVAAITSSGGRTYYADSVKGRFTISRDNAKNTVYLQMNSLKPEDTAVYYCAASPNYYYYYPMYYWGQGTQVTVSS"
  polyreactivity (PSR sort gate): "high polyreactivity"
- sequence input: "QVQLVESGGGLVQAGGSLRLSCCATGSIFYSYVMGWYRQAPGKEREWFAAISRNGQSTYYADSVKGRFTISLDNAKNTVYLQMNSLKPDDTAVYYCAARSRDKYDYWGQGTQVTVSS"
  polyreactivity (PSR sort gate): "high polyreactivity"
- sequence input: "QVQLVESGGGLVQAVGSLRLSCAASGSTFKRNAMGWYRQAPGKERELVAAITSGGSTYYADSVKGRFTISRDNAKNTVYLQMNSLKPEVTAVYYCNKVPYLKLKMDYWGQGTQVTVSS"
  polyreactivity (PSR sort gate): "high polyreactivity"

// recorded polyreactivity (PSR sort gate) for QVQLVESGGGLVQAGGSLRLSCAASGRIFVRNAMGWYRQAPGKERELVAAITRTGASTYYADSVKGRFTISRDNAKNTVYLQMNSLKPDDTAVYYCAAVWGWPYWVYRYDYWGQGTQVTVSS : high polyreactivity

Reported polyreactivity (PSR sort gate) for QVWLQESGGGLVQACGSLSLSCAASGTISRDIFMGWYRQAPGKEREFVATIAQGGITNYADSVKGRFTISRDNAKNTVYLQKNSVKPGDTAVYYCEALDGNCYWFYYWGQGTQVTVSS was high polyreactivity

The reported value for QVQLVESGGGLVQAGGSHRLSCAASGFIFVRNAMGWYRQAPGKERELVAAISSSGGSTNYADSVKGRFTISRDNAKNTVYLQMNSLKPEDTAVYYCNVVTFRYYYKYGYWGQGTQVTVSS in terms of polyreactivity (PSR sort gate) is high polyreactivity

sequence QVQLVESGGGLVQAGGSLRLSCAASGSTFYYYTMGWYRQAPGKERELVASISGNVGSTSYADSVKGRFTISRDNAKNTVYLQMNSLKPEDTAVYYCNTDWGYYHSPDSDYWGQGTQVTVSS , polyreactivity (PSR sort gate) observed: low polyreactivity

Recorded polyreactivity (PSR sort gate) (sequence QVQLLESGGGLVQAGGSLRLSCAASGSIFLLNAMGWYRQAPGKERELVASISRGGVRTNYADSEKGRFTISRDNAKNTVYLQMISLKPEDTAVYYCAAGTRPFGYRRDYWGQGTQVTVSS ): high polyreactivity

Record summary for KVQLVESGGGLFQAVGSLRLSCADSGRTLGGYAMGWYRQAPGKDRELVAAITSDTGTNYADSVKGRFTISRDNAKNTVYLQMNSLKPEDTAVYYCAAERFYEYDYWGQGTQVTVSS : reported polyreactivity (PSR sort gate) = low polyreactivity

Reported polyreactivity (PSR sort gate) ( QVQLVESGGGLVQAGGSLRLSCAASGRIFPRYAMGWYRQAPGKERELVATISSGGSTYYADSVKGRFTISRDNAKNTVYLQMNSLKPEDTAVYYCAARKRPYTVINGMDYCGQGTQVTVSS ) = low polyreactivity

Entry QVQLVESGGGLVQAGGSLRLSCAASGRIFYSNTMGWYRQAPGKERELVAAISRSGGRTYYADSVKGRFTISRDNAKHTVYLQMNSLKPEDTAVYYCNTAYYRNPYYKGYYWGQGTQVTVSS — recorded polyreactivity (PSR sort gate) = high polyreactivity

For reference, reported polyreactivity (PSR sort gate) for QVQLVESGGGLVQAGGILRLSCDASGFTFYYYTMGWYRQAPGKERELVAAISKSGGTTYYADSVKGRFTISRDNAKNTVYLQMNSLKPEDTAVYYCAAKPWVWVYARYGKHPSYDYWGQGTQVTVSS stands at high polyreactivity

Per the record, QVQLVESGGGLVQAGGSLPLSCAASGRIFSYYAMGRYRQAPGKERELVASISRSGGSTYYADSVKGRFTISRDNAKNTVYLQMISLKPEDTAVYYCAAYKYVRSYPYDYWGQGTQVTVSS has polyreactivity (PSR sort gate) of low polyreactivity

Entry QVQLVDSGGGLVQAGGSLRLSCAASGRIFHGYAMGWYRLAPGKERELVAAISWRGDSTYYADSVKGRFTISRDNAKNTVYLQMNSLKPEDTAVYYCAAASRSWRDDYWGQGTQVTVSS , polyreactivity (PSR sort gate) reported as low polyreactivity

The sequence QVQLVESGGGLVQAGGSLSLSCAASGSTFSIYTMGWYRQAPGKERELVAVITKSGGSTYYADSVKGRFTISRDNAKNTVYLQMNSLKPEDTAVYYCAARRRGARHDYWGQGTQVTVSS showed polyreactivity (PSR sort gate) equal to high polyreactivity

get_value(item= QVQLVESGGGLVQAGGSLRLSCAASGSTFDGYAMGWSRQAPGKERELVGSITRRGGSTYYADSVKGRFTISRDNAKNTVYVQMNSLKPEDTAVYYCAVLGRGVSGYTWPYDYWGQGTQVTVSS , readout=polyreactivity (PSR sort gate)) returns high polyreactivity

Just so you know, measured polyreactivity (PSR sort gate) for QVQLVESGGGLVQAGGSLRLSCAASGRIFTYYAKGWYRQAPGKERELVAAISWSGGSTYYADSVKARITISRDNAKKTVYLVMNSLNPEDTAVYYCNAVYPSVYPVSTRYYWGQGTQVTVSS came out at high polyreactivity

The reported value for QVQLVESGGGLVQAGGSLRLSCAASGSNFLCYTMGWYRQAPGKERELVAAISRTGGSTYYADSVKGRFTISRDNAKNTVYLQRNSLKPEDTAVYYCAASLYSITRARYDYWGQGTQVTVSS in terms of polyreactivity (PSR sort gate) is high polyreactivity
